# System: smallflower flatsedge (Cyperus difformis)
# run.description: Test B flooded paddy test
# Format: in vivo
# cond: Rate 1000 g/ha, scale of 0 to 100 where 0 is no effect and 100 is complete control, visually evaluated after 13 to 15 days
reported.endpoint: Plant response rating, Flatsedge
Numbers only.

Study these solved cases before continuing.
molecule="CCC(C)Oc1ccn(C2CCN(c3cccc(C(F)(F)F)c3)C2=O)n1 (stereo not drawn)" target_desc="smallflower flatsedge (Cyperus difformis)" observed=80
molecule="Cc1ccc(N2CCC(n3ccc(C(C)(C)C)n3)C2=O)cc1C(F)(F)F (stereo not drawn)" target_desc="smallflower flatsedge (Cyperus difformis)" observed=100
molecule="O=C1C(n2ccc(C3CC3)n2)CCN1c1cccc(C(F)(F)F)c1 (stereo not drawn)" target_desc="smallflower flatsedge (Cyperus difformis)" observed=100
molecule="CC(C)(C)c1ccn(C2C(=O)N(c3cccc(C(F)(F)F)c3)C[S+]2[O-])n1 (stereo not drawn)" target_desc="smallflower flatsedge (Cyperus difformis)" observed=30
molecule="CC(C)c1ccn(C2SCN(c3cccc(OC(F)(F)F)c3)C2=O)n1 (stereo not drawn)" target_desc="smallflower flatsedge (Cyperus difformis)" observed=100

Respectfully, I request Plant response rating, Flatsedge for each entry included below.
1. Cc1ccnc(N2CCC(n3ccc(C(C)(C)C)n3)C2=O)c1 (stereo not drawn)
2. CC(C)(C)c1ccn(C2OCN(c3cccc(C(F)(F)F)c3)C2=O)n1 (stereo not drawn)
3. Cc1cc(N2CCC(n3ccc(C(C)(C)C)n3)C2=O)ccc1Cl (stereo not drawn)
4. Cc1cn(C2CCN(c3cccc(C(F)(F)F)c3)C2=O)nc1C(C)C (stereo not drawn)
5. COc1cccc(N2CCC(n3ccc(C(C)(C)C)n3)C2=O)c1 (stereo not drawn)
6. O=C1C(n2ccc(C3CC3)n2)OCN1c1cccc(C(F)(F)F)c1 (stereo not drawn)
7. CC1(C)CCc2cn(C3CCN(c4cccc(C(F)(F)F)c4)C3=O)nc21 (stereo not drawn)

1: 70; 2: 100; 3: 90; 4: 90; 5: 100; 6: 100; 7: 100

###

# Tested on: Surinam grass (Brachiaria decumbens)
# run.description: Test C postemergence
# Assay type: in vivo
# cond: Rate 62 g/ha, scale 0 to 100
Please respond with reported Plant response rating, Surinam grass for every item in the list.
One number for each entry.

Study these solved cases before continuing.
molecule="COc1cc(N2CCC(n3ccc(C(C)C)n3)C2=O)ccc1Br (centres unmarked)" observed=30
molecule="COc1cc(N2CCC(n3ccc(C(C)(C)C)n3)C2=O)ccc1Br (centres unmarked)" observed=20
molecule="CCC(CC)c1ccn(C2OCN(c3cccc(OC(F)(F)F)c3)C2=O)n1 (centres unmarked)" observed=0
molecule="CCOc1cc(N2CCC(n3ccc(C(C)(C)C)n3)C2=O)ccc1C (centres unmarked)" observed=0

Consider the additional molecule presented here.
Value lookup for Plant response rating, Surinam grass; key = O=C1C(n2ccc(C3CCC3)n2)SCN1c1cccc(OC(F)(F)F)c1 (centres unmarked)
0

###

# Test system: rice (Oryza saliva)
# run.description: Test C flooded paddy test
# Assay type: in vivo
# cond: flooded paddy test, Rate 125 g/ha; scale 0 to 100 (0 no effect, 100 complete control)
Please respond with reported Plant response rating, Rice for every item in the list.

Study these solved cases before continuing.
molecule="CCCCC(CCCC)c1ccn(C2SCN(c3cccc(C(F)(F)F)c3)C2=O)n1 (centres unmarked)" reported_endpoint="Plant response rating, Rice" observed=0
molecule="O=C1C(n2ccc(C3CCC3)n2)SCN1c1cccc(OC(F)(F)F)c1 (centres unmarked)" reported_endpoint="Plant response rating, Rice" observed=30
molecule="CCOc1cccc(N2CCC(n3ccc(C(C)CC)n3)C2=O)c1 (centres unmarked)" reported_endpoint="Plant response rating, Rice" observed=20
molecule="CC(C)(C)c1ccn(C2CCN(c3ccc4c(c3)CCC4)C2=O)n1 (centres unmarked)" reported_endpoint="Plant response rating, Rice" observed=0

Consider the additional molecule presented here.
Tell me reported Plant response rating, Rice for Cc1ccc(N2CCC(n3ccc(C(C)(C)C)n3)C2=O)cc1OCCI (centres unmarked) , tested with rice (Oryza saliva).
0

###

# Test system: crabgrass (Digitaria sanguinalis)
# run.description: Test B postemergence
# Type: in vivo
# cond: Rate 125 g/ha, scale 0 to 100, 0 no effect, 100 complete control
# Method: […] At the same time, plants selected from these crop and weed species and also blackgrass (Alopecurus myosuroides), wheat (Triticum aestivum) and wild oat (Avena fatua) were treated with postemergence applications of test chemicals formulated in the same manner. […] Treated plants and controls were maintained in a greenhouse for 13 to 15 days, after which time all species were compared to controls and visually evaluated. […]
Please respond with reported Plant response rating, Crabgrass for every item in the list.
Give bare numbers.

molecule="CC(C)OC(=O)c1cccc(N2CCC(n3ccc(C(C)(C)C)n3)C2=O)c1 (centres unmarked) [Compound 124]" observed=0
molecule="CCCC(C)c1ccn(C2CCN(c3cccc(OCC)c3)C2=O)n1 (centres unmarked) [Compound 129]" observed=0
molecule="Cc1cccc(N2CCC(n3ccc(C(C)(C)C)n3)C2=O)c1 (centres unmarked) [Compound 112]" observed=30
molecule="CCC(C)c1ccn(C2CCN(c3ccc(F)c(C(F)(F)F)c3)C2=O)n1 (centres unmarked) [Compound 145]" observed=0
molecule="CC(C)(C)c1ccn(C2CCN(c3ccc(F)c(C(F)(F)F)c3)C2=O)n1 (centres unmarked) [Compound 146]" observed=0

Respectfully, I request Plant response rating, Crabgrass for each entry included below.
1. CCC(CC)c1ccn(C2CCN(c3ccc(Cl)c(OC)c3)C2=O)n1 (centres unmarked) [Compound 118]
2. CCCCC(CCCC)c1ccn(C2OCN(c3cccc(OC(F)(F)F)c3)C2=O)n1 (centres unmarked) [Compound 113]

1. 40
2. 40

Value lookup for Plant response rating, Crabgrass; key = CCC(C)c1ccn(C2OCN(c3cccc(OC(F)F)c3)C2=O)n1 (centres unmarked) [Compound 134]
20

###

# System: pigweed (Amaranthus retroflexus)
# run.description: Test C preemergence
# Assay type: in vivo
# cond: preemergence, Rate 62 g/ha, scale 0 to 100
Lab note: cut-off is 30. Strictly less in Plant response rating, Pigweed is Yes. Exactly 30 or more is No.

molecule="CCCC(C)c1ccn(C2CCN(c3ccc(Cl)c(OC)c3)C2=O)n1 (stereo not shown) [Compound 121]" target_desc="pigweed (Amaranthus retroflexus)" qualitative_label=Yes
molecule="CCCC(C)c1ccn(C2OCN(c3cccc(OC(F)F)c3)C2=O)n1 (stereo not shown) [Compound 132]" target_desc="pigweed (Amaranthus retroflexus)" qualitative_label=Yes
molecule="COc1cc(N2CCC(n3ccc(C(C)(C)C)n3)C2=O)ccc1Br (stereo not shown) [Compound 141]" target_desc="pigweed (Amaranthus retroflexus)" qualitative_label=No
molecule="COc1cc(N2CCC(n3ccc(C(C)(C)C)n3)C2=O)ccc1Cl (stereo not shown) [Compound 117]" target_desc="pigweed (Amaranthus retroflexus)" qualitative_label=No
molecule="CSc1cccc(N2CCC(n3ccc(C(C)(C)C)n3)C2=O)c1 (stereo not shown) [Compound 86]" target_desc="pigweed (Amaranthus retroflexus)" qualitative_label=No
molecule="CCC(C)Oc1cccc(N2CCC(n3ccc(C(C)(C)C)n3)C2=O)c1 (stereo not shown) [Compound 127]" target_desc="pigweed (Amaranthus retroflexus)" qualitative_label=Yes
molecule="Cc1ccc(N2CCC(n3ccc(C(C)(C)C)n3)C2=O)cc1OCCCl (stereo not shown) [Compound 109]" target_desc="pigweed (Amaranthus retroflexus)" qualitative_label=Yes
molecule="CCCOc1cc(N2CCC(n3ccc(C(C)(C)C)n3)C2=O)ccc1C (stereo not shown) [Compound 107]" target_desc="pigweed (Amaranthus retroflexus)" qualitative_label=No

Please state whether Plant response rating, Pigweed is below 30 for CC(C)(C)c1ccn(C2OCN(c3cccc(OC(F)F)c3)C2=O)n1 (stereo not shown) [Compound 133]
No

###

Please respond with reported Plant response rating, Flatsedge for every item in the list.
# Test system: smallflower flatsedge (Cyperus difformis)
# run.description: Test C flooded paddy test
# Type: in vivo
# cond: flooded paddy test, Rate 62 g/ha; scale 0 to 100 (0 no effect, 100 complete control)
Numbers only.

compound="CC(C)(C)c1ccn(C2CCN(c3cccc(SC(F)(F)F)c3)C2=O)n1 (stereo not drawn)" observed=0
compound="CCCC(C)c1ccn(C2SCN(c3cccc(C(F)(F)F)c3)C2=O)n1 (stereo not drawn)" observed=90
compound="O=C1C(n2ccc(C3CCC3)n2)SCN1c1cccc(C(F)(F)F)c1 (stereo not drawn)" observed=100
compound="CCOc1cc(N2CCC(n3ccc(C(C)(C)C)n3)C2=O)ccc1C (stereo not drawn)" observed=80
compound="CCCCC(CCCC)c1ccn(C2SCN(c3cccc(C(F)(F)F)c3)C2=O)n1 (stereo not drawn)" observed=0

Respectfully, I request Plant response rating, Flatsedge for each entry included below.
1. Cc1cn(C2CCN(c3cccc(C(F)(F)F)c3)C2=O)nc1C(C)C (stereo not drawn)
2. CCCC(C)c1ccn(C2OCN(c3cccc(OC(F)(F)F)c3)C2=O)n1 (stereo not drawn)
3. CC(C)(C)c1ccn(C2CCN(c3ccc(Cl)c(Br)c3)C2=O)n1 (stereo not drawn)
4. Cc1ccn(C2SCN(c3cccc(C(F)(F)F)c3)C2=O)n1 (stereo not drawn)
5. CC(C)(C)c1ccn(C2CCN(c3ccc4c(c3)CCC4)C2=O)n1 (stereo not drawn)
6. CCC(C)c1ccn(C2CCN(c3cccc(OC(C)C)c3)C2=O)n1 (stereo not drawn)
7. O=C1C(n2ccc(C3CCC3)n2)SCN1c1cccc(OC(F)F)c1 (stereo not drawn)

[20, 0, 80, 0, 40, 90, 90]
